All values here come from patent US5821046A.

Target: HIV-1 Tat (Human immunodeficiency virus 1, UniProt P04608 P04608:1-86)
Assay: competition; D1/2; wild type 90 nM
measurement name: pIC50
The meaning of pIC50 here: minus log10 of the concentration in molar units.

Consider the following illustrative entries.
TAR bulge CUU (ssRNA, [23]) RNA: GGGUCUCUCUGGUUAGACCAGACUUGAGCCUGGGAGCUCUCUGGCUAACUAGGGAACCC : 6.20
TAR C39 to G39 (ssRNA) RNA: GGGUCUCUCUGGUUAGACCAGAUUUGAGCCUGGGAGCUGUCUGGCUAACUAGGGAACCC : 5.83
TAR A22 to U22; U40 to A40 (ssRNA) RNA: GGGUCUCUCUGGUUAGACCAGUUUUGAGCCUGGGAGCUCACUGGCUAACUAGGGAACCC : 6.66
TAR bulge CC (ssRNA) RNA: GGGUCUCUCUGGUUAGACCAGACCGAGCCUGGGAGCUCUCUGGCUAACUAGGGAACCC : 5.62
TAR U40 to A40 (ssRNA) RNA: GGGUCUCUCUGGUUAGACCAGAUUUGAGCCUGGGAGCUCACUGGCUAACUAGGGAACCC : 5.25

Then this binder:
binder TAR G26 to A26; C39 to U39 (ssRNA) RNA: GGGUCUCUCUGGUUAGACCAGAUUUAAGCCUGGGAGCUUUCUGGCUAACUAGGGAACCC , pIC50 observed: 6.20
